Tested on: Vero E6 infected with SARS-CoV-2
test_description: morphology score (similarity to uninfected cells); higher = more like uninfected cells
condition_context: 24 h
experimental_readout: morphology score
Give bare numbers.

Consider the worked cases shown below.
| compound | morphology score |
| --- | --- |
| O=C(O)P(=O)(O)O [foscarnet] (10 µM) | 0.202 |
| O=C1CN(/N=C/c2ccc(-c3ccc([N+](=O)[O-])cc3)o2)C(=O)N1 [dantrolene] (10 µM) | 0.0672 |
| c1cc(Nc2cc(C3CC3)n[nH]2)nc(Nc2ccc3[nH]cnc3c2)n1 (0.833333 µM) | -0.282 |
| CCOc1nc2cccc(C(=O)OCc3oc(=O)oc3C)c2n1Cc1ccc(-c2ccccc2-c2noc(=O)[nH]2)cc1 [azilsartan-medoxomil] (10 µM) | -0.168 |
| O=C(c1cncc(Br)c1)N1CCC(N2CCCC2)CC1 (10 µM) | 0.146 |

// for each compound in input: emit morphology score
1. CCOC(=O)Nc1ccc(NCc2ccc(F)cc2)nc1N [flupirtine] (10 µM)
2. CNC(=C[N+](=O)[O-])NCCSCc1ccc(CN(C)C)o1 [ranitidine] (10 µM)
3. CN(C)CC(c1ccc(O)cc1)C1(O)CCCCC1 (stereo unspecified) [desvenlafaxine] (10 µM)
4. CCc1c(O)cc(O)c(C(=O)c2ccc(OCCN3CCOCC3)c(OC)c2)c1CC(=O)N(CCOC)CCOC (10 µM)

Reply |
[0.0326, -0.0967, 0.0229, -0.0338]

// for each compound in input: emit morphology score
1. CC(=O)N[C@@H](CC(C)C)C(=O)O [acetyl-l-leucine] (10 µM)
2. O=C1Nc2ccc(I)cc2C1=Cc1cc(Br)c(O)c(Br)c1 (10 µM)

Reply |
[0.134, 0.384]

====

Would you mind telling me the reported morphology score of each entry?
Tested on: Vero E6 infected with SARS-CoV-2
test_description: morphology score (similarity to uninfected cells); higher = more like uninfected cells
condition_context: 24 h
Numbers only.

Consider the worked cases shown below.
| compound | experimental_readout | recorded_number |
| --- | --- | --- |
| Cc1noc(-c2ccc(-c3ccc(CC(=O)O)cc3)cc2)c1NC(=O)O[C@H](C)c1ccccc1 (0.833333 µM) | morphology score | 0.148 |
| CC(C)(C)c1ccc(S(=O)(=O)Nc2ccc(Cl)cc2C(=O)c2cc[n+]([O-])cc2)cc1 [vercirnon] (10 µM) | morphology score | 0.0488 |
| CN(C)CC/C=C1\c2ccccc2CSc2ccccc21 [dosulepin] (10 µM) | morphology score | 0.188 |
| Oc1ccc(Cl)cc1 [parachlorophenol] (10 µM) | morphology score | 0.063 |
| CCCCCCCCCCCC(=O)N(CCO)CCO [lauric-diethanolamide] (10 µM) | morphology score | -0.121 |

// for each compound in input: emit morphology score
1. CC(=O)Nc1cccc(O)c1 [metacetamol] (10 µM)
2. COc1cccc(C(=O)CCN[C@@H](C)[C@H](O)c2ccccc2)c1 [oxyfedrine] (10 µM)
3. Nc1ncc(Cc2ccc(Br)cc2)s1 (10 µM)

Reply |
1. 0.0448
2. 0.217
3. 0.13

// for each compound in input: emit morphology score
1. CC1(C)CNc2cc(NC(=O)c3cccnc3NCc3ccncc3)ccc21 [motesanib] (10 µM)
2. Cc1nc(C)c(C)nc1C [chuanxiongzine] (10 µM)

Reply |
[0.196, -0.146]

====

Tested on: Vero E6 infected with SARS-CoV-2
test_description: inhibition of SARS-CoV-2 cytopathic effect; higher = more antiviral protection, active = above 15
condition_context: 8.33 nM; 48 h
Would you mind telling me the reported inhibition of SARS-CoV-2 cytopathic effect of each entry?
One number for each entry, in %.

Consider the worked cases shown below.
| compound | units_label | recorded_number |
| --- | --- | --- |
| CC(C)=CCC[C@](C)(O)[C@H]1CC[C@]2(C)[C@@H]1[C@H](O)C[C@@H]1[C@@]3(C)CC[C@H](O)C(C)(C)[C@@H]3[C@@H](O)C[C@]12C | % | 0.12 |
| O=C(COc1ccc(Cl)cc1)N1CCN(Cc2ccc3c(c2)OCO3)CC1 [fipexide] | % | 0.95 |

Ask | Suppose we examine the compound C[C@@H]1CC(=O)c2c(ccc3c2C(=O)c2cccc(O)c2C3=O)C1 ; what inhibition of SARS-CoV-2 cytopathic effect value has been reported?
Reply | -1.61

====

System: Vero E6 infected with SARS-CoV-2
test_description: inhibition of SARS-CoV-2 cytopathic effect; higher = more antiviral protection, active = above 15
condition_context: 8.33 nM; 48 h
experimental_readout: inhibition of SARS-CoV-2 cytopathic effect (%)
Give bare numbers, in %.

Consider the worked cases shown below.
| compound | recorded_number |
| --- | --- |
| CS(=O)(=O)c1ccc(Oc2cc(F)cc(C#N)c2)c2c1[C@H](O)C(F)(F)C2 | 2.61 |
| CC1Sc2c(C(=O)O)c(=O)c3cc(F)c(N4CCNCC4)cc3n21 (centres undefined) [ulifloxacin] | -1.36 |
| C[C@]12C=CC(=O)C=C1CC[C@@H]1[C@@H]2C(=O)C[C@@]2(C)[C@H]1CC[C@]2(O)C(=O)CO [prednisone] | -0.26 |
| CN1[C@@H]2CC[C@H]1C[C@@H](OC(=O)[C@H](CO)c1ccccc1)C2 [hyoscyamine] | -0.12 |
| CN(C)C(=O)n1nnnc1Cc1ccc(-c2ccccc2)cc1 | 2.48 |
| CC(=O)NS(=O)(=O)c1ccc(N)cc1 [sulfacetamide] | 2.07 |
| CC(C)(Cc1c[nH]c2ccc(Cl)cc12)NCCOc1ccccc1OCC1CC1 | -0.91 |
| CCN(CC)CCNC(=O)c1cc(S(C)(=O)=O)ccc1OC [tiapride] | -0.89 |

Ask | Suppose we examine the compound O=C(CCCCCCCn1cc(-c2cccnc2)nn1)Nc1ccccc1-c1ccccc1 ; what inhibition of SARS-CoV-2 cytopathic effect value has been reported?
Reply | -1.7

====

Would you mind telling me the reported inhibition of SARS-CoV-2 cytopathic effect of each entry?
Tested on: Vero E6 infected with SARS-CoV-2
test_description: inhibition of SARS-CoV-2 cytopathic effect; higher = more antiviral protection, active = above 15
condition_context: 8.33 nM; 48 h
Numbers only, in %.

Consider the worked cases shown below.
| molecule | recorded_number |
| --- | --- |
| COc1cccc(Nc2c(C(N)=O)cnc3c(C)cc(S(=O)(=O)c4cccc(C(=O)N(C)C)c4)cc23)c1 | 3.12 |
| CCO/N=C(\C(=O)N[C@@H]1C(=O)N2C(C(=O)[O-])=C(Sc3nc(-c4cc[n+](C)cc4)cs3)CS[C@H]12)c1nsc(NP(=O)(O)O)n1 | 2.02 |
| C[C@]12CC[C@H](O)C[C@H]1CC[C@@H]1[C@@H]2CC[C@]2(C)[C@@H](C3=CC(=O)OC3)CC[C@]12O | -1.96 |
| O=C(COc1cccc2c(=O)[nH]ccc12)c1ccccc1 | 1.84 |
| COc1ccc2c(Oc3ccc(NC(=O)c4c(C)n(CC(C)(C)O)n(-c5ccccc5)c4=O)nc3)ccnc2c1 | 1.91 |
| C[C@]1(c2nc3c(C(N)=O)cccc3[nH]2)CCCN1 | 7.83 |
| CC(C)(C)NCC(O)c1ccccc1Cl (stereo not drawn) | 1.33 |
| Cc1ccc(C(=O)c2ccc(CC(=O)O)n2C)cc1 | -1.62 |

// for each molecule in input: emit inhibition of SARS-CoV-2 cytopathic effect
1. CN1CCCC(CN2c3ccccc3Sc3ccccc32)C1 (stereo not drawn)
2. Cc1cc(C)c(NC(=O)N(Cc2ccc3c(c2)Cc2ccccc2-3)C2CCCCCC2)c(C)c1
3. CCC(=O)c1cc(-c2ccc(Cl)cc2)n(-c2ccc(S(N)(=O)=O)cc2)c1C
4. COc1cc2c(cc1OC)-c1c/c(=N\c3c(C)cc(C)cc3C)n(C)c(=O)n1CC2

Reply |
3.28
0.24
-3.03
2.01

====

Tested on: Vero E6 infected with SARS-CoV-2
test_description: SARS-CoV-2 infection rate relative to infected DMSO; higher = more infection, active = 60 or less
condition_context: 24 h
I would appreciate it if you answered using one of these outcomes: active, inactive

| molecule | class_assignment |
| --- | --- |
| CC(C)(O)C(Cl)(Cl)Cl [chlorobutanol] (10 µM) | inactive |

Ask | Which outcome was assigned to Cc1noc(C)c1-c1cc(O)cc([C@@H](O)c2ccccc2)c1 (10 µM) in this test?
Reply | inactive

Ask | Likewise for COc1cc(Nc2ncc3c(n2)-c2ccc(Cl)cc2C(c2c(F)cccc2OC)=NC3)ccc1C(=O)O [alisertib] (0.833333 µM) ?
Reply | inactive

Ask | Likewise for N[C@@H]1CCN(c2cccnc2)C1 (10 µM) ?
Reply | inactive

====

Test system: Vero E6 infected with SARS-CoV-2
test_description: morphology score (similarity to uninfected cells); higher = more like uninfected cells
condition_context: 24 h
Would you mind telling me the reported morphology score of each entry?
One number for each entry.

Consider the worked cases shown below.
| compound | morphology score |
| --- | --- |
| COC(=O)C1=C(C)NC(C)=C(C(=O)O[C@H]2CCN(Cc3ccccc3)C2)[C@H]1c1cccc([N+](=O)[O-])c1 [barnidipine] (10 µM) | -0.0592 |
| CC(=O)NCC(=O)N[C@H](CCC(=O)O)C(=O)O [N-acetylglycyl-D-glutamic-acid] (10 µM) | 0.127 |

// for each compound in input: emit morphology score
1. Cc1ccc([N+](=O)[O-])cc1O [2-methyl-5-nitrophenol] (10 µM)
2. O=C1CC[C@@](c2ccccc2)(C2CCN(Cc3ccc(I)cc3)CC2)C(=O)N1 [iododexetimide] (10 µM)
3. Cc1cccc(C(=O)NCN2CCN(c3ccccc3C#N)CC2)c1 (10 µM)

Reply |
1: 0.0626; 2: -0.0136; 3: 0.161
